MEASUREMENT TARGET: Hexose transporter 1 (Plasmodium falciparum)
PROCEDURE SUMMARY: ST_JUDE_LEISH: Cytotoxicity at 2uM final concentration against transgenic Leishmania Mexicana promastigotes LmPfHT that are glucose transport deficient and complemented with the Plasmodium falciparum hexose transporter. Activity is measured by DNA content using SYBR green in vitro
Format: functional
Hi there, I'd appreciate the recorded inhibition for every entry that follows.
Note: unit % is implicit; provide only the numeric part.

Give its inhibition value. Item: N#Cc1ccc(-c2ccc(C(=O)NCCCCN3CCC(c4ccc5c(c4OCC(N)=O)CCCC5)CC3)cc2)cc1
0.2

For Cc1nc2ccc(F)cc2n1C1CCN(C(=O)Cc2ccc(F)c(F)c2)CC1 then?
-1.91

For O=C(C1CCCC1)N1CCOC(CCN2CCC(c3ccccc3)CC2)(c2ccc(Cl)c(Cl)c2)C1 (centres undefined) then?
11.5

For COc1c(OC)c(OC)c2ccccc2c1CNCCCCCCNCc1c(OC)c(OC)c(OC)c2ccccc12 then?
7.58

For CC(C)COc1ccc2ccccc2c1CNCCCCCCNCc1c(OCC(C)C)ccc2ccccc12 then?
88.5

For COc1ccc(CCN(C)CCCN2CCC(NC(=O)c3cccc4c(=O)c5ccccc5sc34)CC2)cc1OC then?
1.86

For CC(C)[C@H](NC(=O)c1ccc(O)c(-c2ccc(Cl)c(Cl)c2)c1)C(=O)NCCN1CCCC1 then?
-0.09

For O=S(=O)(c1ccc(OCc2ccc(Cl)cc2)cc1)c1cc2c(cc1OCc1ccccc1)CCN(C1CCC1)CC2 then?
4.84

For CCCNc1ccc2nccc(CCN3CCC(NCc4ccc5c(c4)NC(=O)CS5)CC3)c2n1 then?
3.1

* * *

Hi there, I'd appreciate the recorded inhibition for every entry that follows.
MEASUREMENT TARGET: Hexose transporter 1 (Plasmodium falciparum) (UniProt O97467)
PROCEDURE SUMMARY: ST_JUDE_LEISH: Cytotoxicity at 2uM final concentration against transgenic Leishmania Mexicana promastigotes LmPfHT that are glucose transport deficient and complemented with the Plasmodium falciparum hexose transporter. Activity is measured by DNA content using SYBR green in vitro
Format: functional
Note: unit % is implicit; provide only the numeric part.

Give its inhibition value. Item: CCC(=O)c1c(C)n(-c2ncnc3c2nc(C)n3-c2ccc(C)cc2C)c2ccccc12
1.9

For CCCC(C)Nc1nc(C)cc(N[C@@H](CC(C)C)C(=O)NC2CCCC2)n1 (stereo partly drawn) then?
4.34

For Cc1ccc(N2CCN(C(=O)c3cccc(-c4cncc5nc(-c6ccco6)n(C)c45)c3)CC2)nc1 then?
5.42

For N=C(N)NN=CC(=O)Nc1cc([N+](=O)[O-])cc([N+](=O)[O-])c1 then?
7.12

For O=c1cc(NCCCCNCc2cccc(C(F)(F)F)c2)[nH]c2ccccc12 then?
7.88

For CCCCCCN1CCN(Cc2cccc(NC(=O)c3cc4ccccc4o3)c2)CC1 then?
1.56

For CC(CNC1CCN(CCn2c(=O)ccc3ccc(F)cc32)CC1)c1ccccc1 (stereo not drawn) then?
-1.07

For Nc1nc(N)c2c(CCc3ccc(Cl)c(Cl)c3)cccc2n1 then?
11.2

For O=C(CCc1cccnc1)Nc1cccc(-c2ccc(-c3nc4cc(C(F)(F)F)ccc4[nH]3)cc2)c1 then?
7.53

For COc1ccc(CCn2c(=N)c(C(=O)NC3CCCC3)cc3c(=O)n4ccccc4nc32)cc1 then?
9.43

For Cc1cc(NCC(C)C)c2[nH]nc(-c3ccccc3)c2n1 then?
3.39

For CO/C(=C\C=C\c1cc2cc(Cl)c(Cl)cc2[nH]1)C(=O)NC1CCN(CCNc2ccccc2)CC1 then?
-1.2

For COc1ccccc1Cc1nc2ccccc2nc1SCC(=O)Nc1cccc(C(F)(F)F)c1 then?
3.21

For CC(C)N(Cc1ccccc1)C(=O)CN1C(=O)COc2ccc(S(=O)(=O)N3CCCCCC3)cc21 then?
1.02

For NCCNS(=O)(=O)c1ccc(-c2ccnc3[nH]c(-c4ccncc4)cc23)cc1 then?
1.19

For Cc1ccc(C(C(=O)Nc2ccc(N3CCNCC3)c(Cl)c2)c2ccccc2)cc1 (stereo not drawn) then?
0.84

For CC(CN1CCN(C)CC1)C(=O)Nc1cccc(-c2ccc(-c3nc4ccccc4[nH]3)s2)c1 (stereo not drawn) then?
-1.46

For COC(=O)c1cc(C(O)CNC(C)CCc2cccc(F)c2)ccc1O (stereo not drawn) then?
2.7

For c1cc(CNCCc2ccncc2)cc(-c2cccc(-c3nc4ccccc4[nH]3)c2)c1 then?
12.2

For COc1cccc(OC)c1CN1CCC(N(C)CCCCCCCCCN2CCC(OC(=O)Nc3ccccc3-c3ccccc3)CC2)CC1 then?
108

For COc1ccc(CNc2nc(NCc3ccc(C(F)(F)F)cc3)c3cc(OC)c(OC)cc3n2)cc1OC then?
19.9

For O=C(NCCCN1CCCCC1)c1ccc(Nc2nccc(Nc3ccc(Oc4ccccc4)cc3)n2)cc1 then?
8.47

For CC1CCCN(C(=O)c2cc(-c3ccccn3)nc3c(Cl)cccc23)C1 (stereo not drawn) then?
1.26

For Cc1cc(N/N=C/c2ccccc2[N+](=O)[O-])c2cccc(C)c2n1 then?
13.9

For O=C(NC1CCN(c2ccnc3cc(Cl)ccc23)C1)c1ccc(F)cc1F (stereo not drawn) then?
5.62

For CC(C)c1ccc(NC(=O)NC2CCN(CCCCCNC(=O)/C=C/c3ccc(Cl)c(Cl)c3)CC2)cc1 then?
-0.91

For CN(C)CCCOc1ccccc1CN1CC[C@H](NC(=O)c2ccc(Cl)c(Cl)c2)C1 then?
-0.54

For Cc1cc2c(cc1C(F)(F)F)N(C(=O)Nc1ccc(C(=O)NCCN3CCCC3)cc1)CC2 then?
1.86

For CCNc1cc(C(=O)N[C@@H](Cc2ccccc2)[C@H](O)CNC(C)(C)Cc2ccccc2)cc(N2CCCC2=O)c1 then?
0.61

For Cn1c(NC(=O)C2CCCN(C(=O)c3ccc(O)c(-c4ccc(Cl)c(Cl)c4)c3)C2)nc2ccccc21 (stereo not drawn) then?
-0.09

For COc1ccc(OCC(O)CN(Cc2ccccc2OC)C(=O)Nc2ccc(Br)cc2)cc1 (stereo not drawn) then?
4.6

For Cn1c(Nc2cc(C(C)(C)C)on2)nc2cc(Nc3ccnc(Nc4ccc(CS(C)(=O)=O)cc4)n3)ccc21 then?
1.48

For Cn1cncc1C(=O)Nc1cccc(-c2cccc(-c3nc4cc(C(F)(F)F)ccc4[nH]3)c2)c1 then?
2.87

For COc1cc(C(=O)NC2CC(C)(C)N(C)C(C)(C)C2)ccc1-c1cc2cc(Cl)c(Cl)cc2[nH]1 then?
-1.54

For CN(C)CCOc1ccc(-c2cc(-c3ccncc3)c(-c3ccc(Cl)c(O)c3)[nH]2)cc1 then?
1.71

For CCN1CCc2nc3ccccc3c(C(=O)Nc3ccc(C#N)cc3)c2C1 then?
3.74

For CCCCCCCCCCN1C(=O)C2C(CCCCNC(C)=O)NC3(C(=O)N(Cc4ccc(C(C)(C)C)cc4)c4ccccc43)C2C1=O (stereo not drawn) then?
9.32

For O=C(Cn1cc(C=C2SC(=NC3CCCC3)N(C3CCCC3)C2=O)c2ccccc21)N1CCCC1 then?
1.46

* * *

Hi there, I'd appreciate the recorded inhibition for every entry that follows.
MEASUREMENT TARGET: Glucose transporter (Leishmania mexicana)
PROCEDURE SUMMARY: ST_JUDE_LEISH: Cytotoxicity at 2uM final concentration against transgenic Leishmania Mexicana promastigotes LmGT2 that are glucose transport deficient and complemented with the L. Mexicana glucose transporter 2. Activity is measured by DNA content using SYBR green in vitro
Assay type: functional
Note: unit % is implicit; provide only the numeric part.

Give its inhibition value. Item: CCOC(=O)c1c[nH]c2c(sc3cc(OC)ccc32)c1=O
-0.47

For Fc1ccccc1COc1ccc(Nc2ncnc3ccc(-c4nnc(C(F)(F)F)o4)cc23)cc1Cl then?
2.13

For CCCC(C)c1ccc(N2C(N)=NC(N)=NC2(C)C)cc1 (stereo not given) then?
0

For Nc1c2c(nc3ccc(Oc4ccc(Br)cc4Br)cc13)CCCC2 then?
57.4

For CCN(CC)S(=O)(=O)c1ccc(C(=O)Oc2ccccc2N(Cc2ccc(OC)cc2)C2=NS(=O)(=O)c3ccccc32)cc1 then?
2.59

For CCCc1c(C(=O)OCC)c2cc(O)ccc2n1-c1ccc(OC)cc1 then?
4.32

For Cc1cccn2c(=O)c3cc(C(=O)NC4CCCCC4)c(=N)n(CCCn4ccnc4)c3nc12 then?
-4.98

For Oc1ccccc1CN1CCCC(COC(c2ccc(F)cc2)c2ccc(F)cc2)C1 (stereo not given) then?
0.55

For CC(C)Oc1ccc2ccccc2c1CNCCCCCCNCc1c(OC(C)C)ccc2ccccc12 then?
50.6

For CN1CCN(c2ccnc3ccc(NC(=O)Nc4cccc5ccccc45)cc23)CC1 then?
1.87

For Ic1cc(CNC2CCCCC2)ccc1OCc1cccc(COc2ccc(CNC3CCCCC3)cc2I)c1 then?
2.65

For COc1ccc(Oc2ccccc2CNCC2CCN(CC3CCCCC3)CC2)cc1 then?
2.13

For COc1ccc(C(F)(F)F)cc1N1CCN(CCCCNC(=O)c2ccc(NC(=O)c3ccc(Cl)cc3)cc2)CC1 then?
-0.38

For FC(F)(F)c1ccc2[nH]c(-c3ccc(-c4cccc(CNCCc5cccnc5)c4)s3)nc2c1 then?
4.6

For CN(C)Cc1ccc(-c2ccc(NC(=O)c3ccc4c(=O)n(Cc5ccoc5)cnc4c3)cc2)cc1 then?
-0.37

For CC(Oc1cc(-n2cnc3ccc(NC(=O)CCN4CCCCC4)cc32)sc1C(N)=O)c1ccccc1Cl (stereo not given) then?
6.83

For O=C(Cc1cccc2ccccc12)N1CCc2cc3nccc(N4CCN5CCC[C@H]5C4)c3cc21 then?
10

For CN(C)CCCNCc1cn(S(=O)(=O)c2ccccc2Cl)c2ccccc12 then?
7.6

For CCNC[C@H]1CCCN1CCOc1ccc(-n2cnc3cc(-c4ccc(Cl)cc4)sc3c2=O)cc1OC then?
-2.28

For Cc1cc([N+](=O)[O-])ccc1NC(=O)Nc1cccc(C(F)(F)F)c1 then?
4.81
